Reported pKd is given for each of the following binders.
- ASSAYED_SYSTEM: T1, cyno CCL17 (Macaca fascicularis (cyno), UniProt Q8HYP9 24-94 (rhesus entry))
- T1 construct: Biotinylated in the Fab ELISAs; also called cCCL17; cCCL-17
- T1 sequence: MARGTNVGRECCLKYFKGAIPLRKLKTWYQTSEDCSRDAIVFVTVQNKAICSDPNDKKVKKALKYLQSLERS
- ASSAY_REMARKS: solution equilibrium affinity (MSD-SEA), TBST, 48 h at 4 °C
Expect pKd as a plain number equal to -log10 of the molar concentration.

{"BINDER": "C17B243 (antibody, V domains shown, Full IgG1, kappa) VH: EVQLVQSGAEVKKPGESLKISCKGSGYSFTSYWIGWVRQMPGKGLEWMGIIDPSDSDTRYSPSFQGQVTISADKSISTAYLQWSSLKASDTAMYYCARVGPADVWDSFDYWGQGTLVTVSS VL: DIVMTQSPDSLAVSLGERATINCKSSQSVLNSFDNKNDLAWYQQKPGQPPKLLIYEASTRESGVPDRFSGSGSGTDFTLTISSLQAEDVAVYYCQQHWQTPLTFGQGTKVEIK", "pKd": 9.17}
{"BINDER": "C17B238 (antibody, V domains shown, Full IgG1, kappa) VH: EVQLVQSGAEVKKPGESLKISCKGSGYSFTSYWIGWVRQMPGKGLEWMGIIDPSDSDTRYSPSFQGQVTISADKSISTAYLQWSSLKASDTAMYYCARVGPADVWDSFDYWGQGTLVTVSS VL: DIVMTQSPDSLAVSLGERATINCKSSQSVLISAFNQNPLAWYQQKPGQPPKLLIYDASTRESGVPDRFSGSGSGTDFTLTISSLQAEDVAVYYCQQYQFIPFTFGQGTKVEIK", "pKd": 8.84}
{"BINDER": "C17B240 (antibody, V domains shown, Full IgG1, kappa) VH: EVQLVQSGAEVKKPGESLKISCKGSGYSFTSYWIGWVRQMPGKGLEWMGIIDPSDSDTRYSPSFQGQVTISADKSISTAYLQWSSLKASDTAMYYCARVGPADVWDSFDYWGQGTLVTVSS VL: DIVMTQSPDSLAVSLGERATINCKSSQSVLYSHVNYNALAWYQQKPGQPPKLLIYNASTRESGVPDRFSGSGSGTDFTLTISSLQAEDVAVYYCQQYYTLPATFGQGTKVEIK", "pKd": 8.34}

Then there is this binder:
Query: Name the recorded pKd for C17B236 (antibody, V domains shown, Full IgG1, kappa) VH: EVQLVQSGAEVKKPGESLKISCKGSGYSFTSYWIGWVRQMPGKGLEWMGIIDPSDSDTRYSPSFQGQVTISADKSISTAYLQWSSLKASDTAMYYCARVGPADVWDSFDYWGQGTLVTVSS VL: DIVMTQSPDSLAVSLGERATINCKSSQSVLLSPWNSNQLAWYQQKPGQPPKLLIYGASTRESGVPDRFSGSGSGTDFTLTISSLQAEDVAVYYCQQYYLIPSTFGQGTKVEIK .
Response: 9.53

The reported numbers originate from patent US20220348647A1.
